target: Glycogen [starch] synthase, muscle (Rattus norvegicus) (UniProt A2RRU1); assay: Inhibition of glycogen synthase in rat-1 fibroblast cell lysates at 100 uM using 0.2 mM UDPG as substrate in presence of 1 mM G-6-P by 14C-glucose incorporation assay relative to control; type: subcellular; settings: Lysate
Sequence (A2RRU1 whole entry): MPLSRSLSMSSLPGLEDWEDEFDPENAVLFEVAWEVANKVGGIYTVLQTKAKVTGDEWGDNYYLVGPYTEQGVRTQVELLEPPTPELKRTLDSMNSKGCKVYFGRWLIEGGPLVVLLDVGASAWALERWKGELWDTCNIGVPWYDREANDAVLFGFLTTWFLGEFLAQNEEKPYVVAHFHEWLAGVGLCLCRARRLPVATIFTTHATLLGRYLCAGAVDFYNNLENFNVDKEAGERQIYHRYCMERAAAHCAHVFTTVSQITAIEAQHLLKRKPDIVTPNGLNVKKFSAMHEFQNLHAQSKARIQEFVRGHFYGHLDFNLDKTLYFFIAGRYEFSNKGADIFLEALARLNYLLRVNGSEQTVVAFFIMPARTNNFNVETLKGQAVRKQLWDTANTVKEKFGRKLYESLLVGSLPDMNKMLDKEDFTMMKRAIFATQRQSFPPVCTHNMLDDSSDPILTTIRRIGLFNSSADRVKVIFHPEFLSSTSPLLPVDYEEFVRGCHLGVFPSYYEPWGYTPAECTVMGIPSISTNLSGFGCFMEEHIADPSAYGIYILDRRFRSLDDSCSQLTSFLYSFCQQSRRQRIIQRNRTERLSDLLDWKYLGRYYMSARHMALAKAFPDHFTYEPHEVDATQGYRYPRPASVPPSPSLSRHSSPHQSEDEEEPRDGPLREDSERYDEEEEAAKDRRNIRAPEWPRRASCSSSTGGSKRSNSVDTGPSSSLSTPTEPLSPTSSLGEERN
Measured inhibition, listed per entry for reference.

For O=[N+]([O-])c1ccc(-c2c(-c3ccc(O)c(O)c3O)n[nH]c2C(F)(F)F)cc1 , what is its reported inhibition?
> 30%

Moving on to the next compound: Oc1ccc(-c2n[nH]c(C(F)(F)F)c2-c2ccc(F)cc2)c(O)c1O
> 30%

Repeat for the following compound: Oc1ccc(-c2n[nH]c(C(F)(F)F)c2-c2ccc(Cl)cc2)c(O)c1O
> 30%

// next record Oc1ccc(-c2c(-c3ccc(O)c(O)c3O)n[nH]c2C(F)(F)F)cc1
100%

---

target: Glycogen [starch] synthase, muscle (Homo sapiens); assay: Inhibition of C-terminal 6His-tagged wild type human GYS1 using UDPG as substrate in presence of 1 mM G-6-P by 14C-glucose incorporation assay
Sequence (P13807 whole entry): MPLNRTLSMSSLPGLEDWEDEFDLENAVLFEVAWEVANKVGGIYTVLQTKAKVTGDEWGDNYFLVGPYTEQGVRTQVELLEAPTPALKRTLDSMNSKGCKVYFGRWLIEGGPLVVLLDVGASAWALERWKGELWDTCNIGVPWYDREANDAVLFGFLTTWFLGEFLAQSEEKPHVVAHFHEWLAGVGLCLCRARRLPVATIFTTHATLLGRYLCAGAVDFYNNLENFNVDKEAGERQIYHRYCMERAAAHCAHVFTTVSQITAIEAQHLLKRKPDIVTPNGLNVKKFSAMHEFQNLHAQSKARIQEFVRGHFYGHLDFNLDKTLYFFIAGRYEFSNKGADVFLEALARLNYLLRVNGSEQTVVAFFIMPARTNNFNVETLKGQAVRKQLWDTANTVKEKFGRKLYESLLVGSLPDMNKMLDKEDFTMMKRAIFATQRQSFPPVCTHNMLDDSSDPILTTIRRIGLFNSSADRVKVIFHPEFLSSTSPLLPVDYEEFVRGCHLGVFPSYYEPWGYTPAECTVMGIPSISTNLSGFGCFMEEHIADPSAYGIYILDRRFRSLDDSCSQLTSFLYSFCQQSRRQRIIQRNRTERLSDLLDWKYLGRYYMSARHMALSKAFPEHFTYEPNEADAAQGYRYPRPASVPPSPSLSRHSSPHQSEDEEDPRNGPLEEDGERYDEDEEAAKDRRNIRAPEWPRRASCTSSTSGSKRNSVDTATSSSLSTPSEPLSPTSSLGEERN
READOUT LABEL: IC50 (µM)

Sample records with IC50:
| COMPOUND | OUTPUT UNIT | IC50 |
| --- | --- | --- |
| Oc1ccc(-c2n[nH]c(C(F)(F)F)c2-c2ccc(F)cc2)c(O)c1O | µM | 14.1 |
| Oc1ccc(-c2c(-c3ccc(O)c(O)c3O)n[nH]c2C(F)(F)F)cc1 | µM | 2.75 |
| COc1cc(-c2c(-c3ccccc3)ncn2CCC2CCCN2C)ccc1O (racemic) | µM | 875 |

(1) Oc1ccc(-c2c[nH]nc2-c2ccc(O)c(O)c2O)cc1
(2) O=[N+]([O-])c1ccc(-c2c(-c3ccc(O)c(O)c3O)n[nH]c2C(F)(F)F)cc1
(3) Cc1[nH]nc(-c2ccc(O)c(O)c2O)c1-c1ccc(Cl)cc1
(4) O=[N+]([O-])c1ccc(-c2c[nH]nc2-c2ccc(O)c(O)c2O)cc1
(5) Oc1ccc(-c2n[nH]c(C(F)(F)F)c2-c2ccccc2)c(O)c1O
Please list the entries, largest IC50 first. Could you list the labels in the order requested?
3, 4, 5, 1, 2
(3: 52.9 µM, 4: 34 µM, 5: 16.4 µM, 1: 9.82 µM, 2: 6.54 µM)

(P) N#Cc1ccc(-c2c(-c3ccc(O)c(O)c3O)n[nH]c2C(F)(F)F)cc1
(Q) Oc1ccc(-c2n[nH]cc2-c2ccc(Cl)c(Cl)c2)c(O)c1O
Between P and Q , whose recorded IC50 is greater? Answer format: the label of the selected item.
Q
(Q: 19.5 µM, P: 10.1 µM)

---

target: Glycogen [starch] synthase, muscle (Homo sapiens) (UniProt P13807); test: Inhibition of C-terminal 6His-tagged wild type human GYS1 assessed as enzyme activity at 20 uM using UDPG as substrate in presence of 1 mM G-6-P by 14C-glucose incorporation assay relative to control; design: scale not given: the % may be the effect or the level left
Sequence (P13807 whole entry): as above
READOUT LABEL: Activity (%)

| SMILES STRUCTURE | Activity (%) |
| --- | --- |
| Oc1ccc(-c2c[nH]nc2-c2ccc(O)c(O)c2O)cc1 | 22.6 |
| Cc1[nH]nc(-c2ccc(O)c(O)c2O)c1-c1ccc(F)cc1 | 94 |
| COC(=O)c1ccc(-c2c(-c3ccc(O)c(O)c3O)n[nH]c2C)cc1 | 80.1 |

(1) Oc1ccc(-c2n[nH]c(C(F)(F)F)c2-c2ccc(Cl)c(Cl)c2)c(O)c1O
(2) Oc1ccc(-c2n[nH]c(C(F)(F)F)c2-c2ccccc2)c(O)c1O
(3) Oc1ccc(-c2n[nH]cc2-c2ccccc2)c(O)c1O
(4) O=[N+]([O-])c1ccc(-c2c(-c3ccc(O)c(O)c3O)n[nH]c2C(F)(F)F)cc1
(5) Oc1ccc(-c2c(-c3ccc(O)c(O)c3O)n[nH]c2C(F)(F)F)cc1
Please put the entries in order of rising Activity. Please reply with the labels ordered as requested. Many thanks.
5, 4, 1, 2, 3
(5: -0.26%, 4: 1.43%, 1: 12.2%, 2: 47.2%, 3: 84.7%)

(I) Cc1[nH]nc(-c2ccc(O)c(O)c2O)c1-c1ccc(Cl)cc1
(II) N#Cc1ccc(-c2c(-c3ccc(O)c(O)c3O)n[nH]c2C(F)(F)F)cc1
Could you kindly indicate whether I or II has the higher Activity value? Respond with the label that goes with your answer.
I
(I: 91.8%, II: 42%)

(P) Oc1ccc(-c2c(-c3cc(F)c(O)cc3O)n[nH]c2C(F)(F)F)cc1
(Q) Oc1ccc(-c2n[nH]c(C(F)(F)F)c2-c2ccc(Cl)cc2)c(O)c1O
# argmax over Activity for candidates P and Q Lab note: record the label of whichever item you select.
P
(P: 78.4%, Q: 47.5%)

(1) Cc1[nH]nc(-c2ccc(O)c(O)c2O)c1-c1ccc(Cl)c(Cl)c1
(2) Oc1ccc(-c2n[nH]c(C(F)(F)F)c2-c2ccc(F)cc2)c(O)c1O
Could you determine which record has the numerically smaller Activity? Candidates: 1 and 2 Answer with the label corresponding to your selection.
2
